Ref: ChEMBL document CHEMBL1149713

test system: KB; experiment: Cytotoxicity against human KB cells; type: functional, cell-based
measurementLabel: IC50 (nM)
Kindly provide the numeric value in nM only, without the unit symbol.

Task: GET /values?readout=IC50&system=KB&item= COc1cc2c(cc1OCCCCCN1CCN(C3=NS(=O)(=O)c4ccccc4N3C(C)C)CC1)N=C[C@@H]1CCCN1C2=O
Output: 2430

Task: Proceed to COc1cccc2c1C(=O)c1c(O)c3c(c(O)c1C2=O)C[C@@](O)(C(=O)CO)C[C@@H]3O[C@H]1C[C@H](N)[C@H](O)[C@H](C)O1
Output: 170

Task: Proceed to COc1cc2c(cc1OCCCCCN1CCN(C3=NS(=O)(=O)c4ccccc4N3c3ccccc3)CC1)N=C[C@@H]1CCCN1C2=O
Output: 2300

Task: Proceed to COc1cc2c(cc1OCCCCN1CCN(C3=NS(=O)(=O)c4ccccc4N3C(C)C)CC1)N=C[C@@H]1CCCN1C2=O
Output: 26100

Task: Proceed to COc1cc2c(cc1OCCCCN1CCN(C3=NS(=O)(=O)c4ccccc4N3c3ccccc3)CC1)N=C[C@@H]1CCCN1C2=O
Output: 29400

###

Please go through the items and note down their pIC50.
test system: PC-3; assay: Cytotoxicity against human PC3 cells; type: functional, cell-based
As a rule, pIC50 stands for the negative log10 of the concentration, concentration in M.

Task: State the recorded pIC50 for this entry: COc1cc2c(cc1OCCCCCN1CCN(C3=NS(=O)(=O)c4ccccc4N3C(C)C)CC1)N=C[C@@H]1CCCN1C2=O
Output: 4.56

Task: Proceed to COc1cc2c(cc1OCCCCN1CCN(C3=NS(=O)(=O)c4ccccc4N3c3ccccc3)CC1)N=C[C@@H]1CCCN1C2=O
Output: 3.45

Task: Proceed to COc1cc2c(cc1OCCCCCN1CCN(C3=NS(=O)(=O)c4ccccc4N3c3ccccc3)CC1)N=C[C@@H]1CCCN1C2=O
Output: 5.63

Task: Proceed to COc1cccc2c1C(=O)c1c(O)c3c(c(O)c1C2=O)C[C@@](O)(C(=O)CO)C[C@@H]3O[C@H]1C[C@H](N)[C@H](O)[C@H](C)O1
Output: 5.65

###

system: ZR-75-1; test: Cytotoxicity against human Zr75-1 cells; type: functional, cell-based
Please go through the items and note down their IC50.

Task: State the recorded IC50 for this entry: COc1cccc2c1C(=O)c1c(O)c3c(c(O)c1C2=O)C[C@@](O)(C(=O)CO)C[C@@H]3O[C@H]1C[C@H](N)[C@H](O)[C@H](C)O1
Output: 2320 nM

Task: Proceed to COc1cc2c(cc1OCCCCN1CCN(C3=NS(=O)(=O)c4ccccc4N3C(C)C)CC1)N=C[C@@H]1CCCN1C2=O
Output: 2240 nM

Task: Proceed to COc1cc2c(cc1OCCCCCN1CCN(C3=NS(=O)(=O)c4ccccc4N3C(C)C)CC1)N=C[C@@H]1CCCN1C2=O
Output: 120 nM

Task: Proceed to COc1cc2c(cc1OCCCCN1CCN(C3=NS(=O)(=O)c4ccccc4N3c3ccccc3)CC1)N=C[C@@H]1CCCN1C2=O
Output: 150 nM

###

test system: DNA; experiment: Binding affinity to calf thymus DNA at 20 uM after 18 hrs by thermal denaturation assay; type: nucleic-acid assay; conditions: Bos taurus
Use 4 °C as the dividing line for ΔTm, with the line itself on the Fulfilled side and lower values as Not fulfilled.

Task: Threshold query (ΔTm >= 4 °C) on COc1cc2c(cc1O)N=C[C@@H]1CCCN1C2=O
Output: Not fulfilled

Task: Proceed to COc1cc2c(cc1OCCCCCN1CCN(C3=NS(=O)(=O)c4ccccc4N3C(C)C)CC1)N=C[C@@H]1CCCN1C2=O
Output: Fulfilled

Task: Proceed to COc1cc2c(cc1OCCCCCN1CCN(C3=NS(=O)(=O)c4ccccc4N3c3ccccc3)CC1)N=C[C@@H]1CCCN1C2=O
Output: Fulfilled

Task: Proceed to COc1cc2c(cc1OCCCCN1CCN(C3=NS(=O)(=O)c4ccccc4N3C(C)C)CC1)N=C[C@@H]1CCCN1C2=O
Output: Fulfilled
